tested on: HEK-293T; test: Multiplex assay against HEK293T; assay type: toxicity, cell-based; conditions: human, 12 h, 10 µM, compound concentration 10 uM, replicate 1
assay_readout: Population Tubulin-Different-Phenotype (%)

compound | observed_value
NCCc1cn(S(=O)(=O)c2c(Cl)nc3sccn23)c2ccccc12.O=C(O)C(=O)O | 88%
N#Cc1cc(F)cc(-c2nc(-c3ccc(F)cn3)no2)c1 | 29%
O=C1[C@H](Cc2ccc(O)cc2)N2C(=O)CCN(C(=O)NCc3ccccc3)[C@H]2CN1Cc1cccc2ccccc12 | 76%
CC(=O)Nc1cccc2c1c(Sc1ccc(Cl)cc1)c(C)n2CC(=O)O | 29%
N#Cc1c(Oc2cccc(OS(=O)(=O)CCCC(F)(F)F)c2)cccc1C(F)(F)F | 65%
Cl.N=C(N)NC(=O)Cc1c(Cl)cccc1Cl [GUANFACINE HYDROCHLORIDE] | 43%
CCCOc1ccc2[nH]cc(C3=CCNCC3)c2n1.Cl | 41%

----------
tested on: Fibroblast; assay: Multiplex assay against human fibroblast; type: toxicity, cell-based; settings: 12 h, 10 µM, compound concentration 10 uM, replicate 2

molecule | Total Cell Count
O=C1[C@H](Cc2ccc(O)cc2)N2C(=O)CCN(C(=O)NCc3ccccc3)[C@H]2CN1Cc1cccc2ccccc12 | 144
O=C(NCCN1CCC(n2c(=O)[nH]c3cc(Cl)ccc32)CC1)c1ccc(F)cc1 [HALOPEMIDE] | 148
NCCc1cn(S(=O)(=O)c2c(Cl)nc3sccn23)c2ccccc12.O=C(O)C(=O)O | 219
COc1cccc2c1c(NS(=O)(=O)c1ccc(Cl)s1)nn2Cc1cccc(CNC(=O)C(C)(C)O)c1 | 174
CC(C)(C)c1cc(NC(=O)Nc2ccc(-c3cn4c(n3)sc3cc(OCCN5CCOCC5)ccc34)cc2)no1 | 162

----------
Population Membrane Permeable-Phenotype (%) listing for selected compounds.
tested on: Fibroblast; experiment: Multiplex assay against human fibroblast; assay type: toxicity, cell-based; conditions: 12 h, 10 µM, compound concentration 10 uM, replicate 2
assay_readout: Population Membrane Permeable-Phenotype (%)

compound | observed_value
CCCCC1=NC2(CCCC2)C(=O)N1Cc1ccc(-c2ccccc2-c2nnn[nH]2)cc1 [IRBESARTAN] | 12
CCc1cc2cc(NS(=O)(=O)c3ccc(C#N)cc3)ccc2n(CC)c1=O | 12
COc1ccccc1N1CCN(C[C@@H](C(=O)NC(C)(C)C)c2ccccc2)CC1.Cl.Cl | 6
CN(C)C(=O)Cn1cc(-c2ccc(-c3cncc4ccccc34)cc2)cn1 | 18
CC(C)c1noc(N2CCC(COc3ccc(-c4ccc(S(C)(=O)=O)cc4)nc3)CC2)n1 [GSK-1292263] | 6

----------
tested on: U2OS; assay: Multiplex assay against U2OS; assay type: toxicity, cell-based; conditions: human, 12 h, 10 µM, compound concentration 10 uM, replicate 1
Population Tubulin-Different-Phenotype (%) listing for selected molecules.
assay_readout: Population Tubulin-Different-Phenotype (%)

molecule | system_under_test | observed_value
Cc1onc(-c2ccccc2Cl)c1C(=O)N(C)c1ccc(Cl)cc1 | U2OS | 5
N#Cc1c(Oc2cccc(OS(=O)(=O)CCCC(F)(F)F)c2)cccc1C(F)(F)F | U2OS | 7
Cc1noc(-c2ccc(-c3ccc(CC(=O)O)cc3)cc2)c1NC(=O)O[C@H](C)c1ccccc1Cl | U2OS | 6
Cl.N=C(N)NC(=O)Cc1c(Cl)cccc1Cl [GUANFACINE HYDROCHLORIDE] | U2OS | 7
O=C(NCCN1CCC(n2c(=O)[nH]c3cc(Cl)ccc32)CC1)c1ccc(F)cc1 [HALOPEMIDE] | U2OS | 15
CC(=O)Nc1cccc2c1c(Sc1ccc(Cl)cc1)c(C)n2CC(=O)O | U2OS | 1
NCCc1cn(S(=O)(=O)c2c(Cl)nc3sccn23)c2ccccc12.O=C(O)C(=O)O | U2OS | 59
O=C1[C@H](Cc2ccc(O)cc2)N2C(=O)CCN(C(=O)NCc3ccccc3)[C@H]2CN1Cc1cccc2ccccc12 | U2OS | 55
COC[C@@H](c1ccc(C(F)(F)F)cc1)N1CCN(C2(C)CCN(C(=O)c3c(C)ncnc3C)CC2)C[C@@H]1C.O=C(O)/C=C\C(=O)O [VICRIVIROC MALEATE] | U2OS | 3
CC(C)(C)c1cc(NC(=O)Nc2ccc(-c3cn4c(n3)sc3cc(OCCN5CCOCC5)ccc34)cc2)no1 | U2OS | 76
CN[C@@H](C)C(=O)N[C@H](C(=O)N1CCC[C@H]1C(=O)Nc1snnc1-c1ccccc1)C1CCCCC1 | U2OS | 76
Cc1cnc(-c2cc(N3CCN(C(=O)CCS(C)(=O)=O)CC3)ncc2Cl)c(C)c1 | U2OS | 1
Cl.NCCc1ccc(O)c(O)c1 [DOPAMINE HYDROCHLORIDE] | U2OS | 1
CCCCC(=O)N(Cc1ccc(-c2ccccc2-c2nnn[nH]2)cc1)[C@H](C(=O)O)C(C)C | U2OS | 2
C[C@H](N)COC(=O)[C@@H](CCCCN)NC(=O)Cc1c(-c2ccc3ccccc3c2)[nH]c2c1ccc1ccccc12 | U2OS | 3
COc1cccc2c1c(NS(=O)(=O)c1ccc(Cl)s1)nn2Cc1cccc(CNC(=O)C(C)(C)O)c1 | U2OS | 4
CCCCCC(O)/C=C/[C@H]1C(=O)CC(O)C1C/C=C\CCCC(=O)O (some centres undefined) | U2OS | 5
CCCCC1=NC2(CCCC2)C(=O)N1Cc1ccc(-c2ccccc2-c2nnn[nH]2)cc1 | U2OS | 2
COc1ccccc1N1CCN(C[C@@H](C(=O)NC(C)(C)C)c2ccccc2)CC1.Cl.Cl | U2OS | 41
